FYI, the data here is from patent US12390437B2.

- run.description: Mouse pharmacokinetic study, intravenous dosing
- Assay type: in vivo
- run.conditions: male, C57BL/6, mouse, iv; plasma, 10 mg/kg i.v., time 2 h; read-out: Parent compound concentration following intravenous administration
measure: concentration at 2 h (ng/mL)

(1) C=C(CC(=O)OC1CC2(CCC2)C1)C(=O)OCC(=O)O [Example 96]
(2) C=C(CC(=O)O[C@@H](CCCCCC)C(F)(F)F)C(=O)OCC(=O)O [Example 182]
(3) C=C(CC(=O)O[C@H](C)CCCCCC)C(=O)OCC(=O)O [Example 112]
(4) C=C(CC(=O)OCCCCCC)C(=O)OCC(=O)O [Example 94]
Exam item: list the entries in increasing order of concentration at 2 h. Record the ranking as a list of labels in the requested order.
4, 1, 2, 3

----------
- run.description: Mouse pharmacokinetic study, oral administration
- Type: in vivo
- run.conditions: male, C57BL/6, mouse, plasma, po, 100 mg/kg, plasma, male C57BL/6 mice, oral gavage 100 mg/kg, 24 h; read-out: Parent compound concentrations following oral administration, Time 24 h
measure: concentration at 24 h

Study these solved cases before continuing.
C=C(CC(=O)OC1CCCCCCC1)C(=O)OCC(=O)O [Example 90] : 1.1 ng/mL
C=C(CC(=O)OC1C(C)(C)CC1(C)C)C(=O)OCC(=O)O [Example 169] : < 0.8 ng/mL
C=C(CC(=O)O[C@@H](C)CCCCCC)C(=O)OCC(=O)O [Example 89] : 6.8 ng/mL
C=C(CC(=O)O[C@@H](C)CCCCCC)C(=O)OCCC(=O)O [Example 84] : < 31 ng/mL
C=C(CC(=O)O[C@H](C)CCCCCC)C(=O)OCCC(=O)O [Example 88] : 5.5 ng/mL

Next up:
Give a short answer stating reported concentration at 24 h for C=C(CC(=O)O[C@@H](C)CCCCCC)C(=O)OCCc1nnn[nH]1 [Example 129] .
3.5 ng/mL

----------
- System: hepatocytes
- run.description: Hepatocyte stability assay (human)
- Format: in vitro ADME
- run.conditions: 10 μM compound, 0.5×10^6 cells/mL, 60 minutes
- Experimental: Defrosted cryo-preserved hepatocytes (viability >70%) are used to determine the metabolic stability of a compound via calculation of intrinsic clearance (Clint; a measure of the removal of a compound from the liver in the absence of blood flow and cell binding). […] The metabolic stability in hepatocytes assay involves a time-dependent reaction using both positive and negative controls. […] 80 μL of clear supernatant is removed and mixed with 80 μL of deionised water before being analysed by LC-MS/MS. […]
measure: CIint (μL min^−1 10^−6 cells)

Study these solved cases before continuing.
C=C(CC(=O)O[C@@H](C)CCCCCC)C(=O)OCc1nn[nH]n1 [Example 164] : 42
C=C(CC(=O)O[C@H](C)CCCCCC)C(=O)OCC(=O)O [Example 112] : 65
C=C(CC(=O)OC1CCCCC1)C(=O)OCc1nnn[nH]1 [Example 125] : 9
C=C(CC(=O)OCCCCCC)C(=O)OCC(=O)O [Example 94] : 16

(P) C=C(CC(=O)OC1CC2(CCC2)C1)C(=O)OCC(=O)O [Example 96]
(Q) C=C(CC(=O)O[C@@H](CCCCCC)C(F)(F)F)C(=O)OCC(=O)O [Example 182]
Out of P and Q , name the one with the higher CIint (μL min^−1 10^−6 cells). In your reply, give the label of the chosen option.
Q
